Reported pEC50 by item:
Molecular target: Human GPR120 short form (Homo sapiens)
Construct: expressed in transfected cells
Sequence (Q5NUL3 1-361): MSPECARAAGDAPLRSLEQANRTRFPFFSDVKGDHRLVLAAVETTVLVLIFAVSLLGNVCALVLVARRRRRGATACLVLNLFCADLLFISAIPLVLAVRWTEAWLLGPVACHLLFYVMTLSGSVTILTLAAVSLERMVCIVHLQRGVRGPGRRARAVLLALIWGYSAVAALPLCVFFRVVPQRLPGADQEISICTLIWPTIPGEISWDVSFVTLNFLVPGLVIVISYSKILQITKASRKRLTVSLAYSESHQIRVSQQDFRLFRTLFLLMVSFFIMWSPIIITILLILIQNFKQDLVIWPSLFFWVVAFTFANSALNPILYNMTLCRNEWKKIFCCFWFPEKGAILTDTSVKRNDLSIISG
Assay: Human GPR120 calcium flux assay, Procedure Calcium A
Type: cell-based
Details: HEK-293 cells expressing human GPR120 short form, 2500 cells/well, FLIPR
// scale note: pEC50 = -log10(conc_M); give the bare number

Cc1c(CCCO)ccc(OCc2c(C(F)(F)F)ccn2-c2ccc(Cl)cc2)c1C | 5.96

Q. Param item = Cc1ccc(-n2ccc(C(F)(F)F)c2COc2c(F)cc(CCC(=O)O)cc2F)cn1 ; retrieve measured pEC50.
A. 6.06

Q. Another molecule: OCCCc1cc(F)c(OCc2c(C(F)(F)F)ccn2-c2ccc(Cl)cc2)c(F)c1
A. 6.21

Q. Another molecule: COc1ccc(-n2ccc(C(F)(F)F)c2COc2ccc(CCC(=O)O)c(F)c2F)cn1
A. 6.08
